Source: patent US10028961B2

- Measured On: IDH2 R140Q (Homo sapiens (Human), UniProt P48735, R140Q)
- Sequence (P48735 40-452 R140Q): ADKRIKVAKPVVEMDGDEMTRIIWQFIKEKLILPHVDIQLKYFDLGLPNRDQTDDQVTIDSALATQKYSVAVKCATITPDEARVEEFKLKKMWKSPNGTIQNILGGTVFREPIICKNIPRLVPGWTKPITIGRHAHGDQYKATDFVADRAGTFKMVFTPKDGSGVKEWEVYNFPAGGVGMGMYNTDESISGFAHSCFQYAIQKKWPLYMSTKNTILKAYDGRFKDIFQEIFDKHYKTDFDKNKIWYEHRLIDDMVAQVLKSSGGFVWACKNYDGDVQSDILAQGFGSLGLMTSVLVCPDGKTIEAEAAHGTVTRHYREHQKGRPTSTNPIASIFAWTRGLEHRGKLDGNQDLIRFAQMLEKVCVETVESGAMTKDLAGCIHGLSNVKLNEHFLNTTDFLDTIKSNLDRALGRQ
- Procedure Text: In vitro assay for IDH2m R140Q inhibitors, cofactor depletion assay
- Format: biochemical
- Settings: IDH2 R140Q enzyme
Value Kind: IC50

Molecule: FC1(F)CC[C@@H](Nc2nc(N[C@H]3CCC(F)(F)C3)nc(-c3cccc(C(F)(F)F)n3)n2)C1
IC50: < 50 nM
//
Molecule: CC(C)(C)Nc1nc(Nc2cc(F)cc(C#N)c2)nc(-c2nccc(C(F)(F)F)n2)n1
IC50: < 50 nM
//
Molecule: FC1(F)CCC(Nc2nc(NC3CCC(F)(F)CC3)nc(-c3nccc(C(F)(F)F)n3)n2)CC1
IC50: 50 to 100 nM

Proceeding to the next molecule to report its IC50.
**Q:** Please state recorded IC50 (tested on IDH2 R140Q (Homo sapiens (Human), UniProt P48735, R140Q)) of C[C@@H](Nc1nc(N[C@H](C)C2CC2)nc(-c2cccc(CO)c2)n1)C1CC1
**A:** < 50 nM
